Overview of reported melting point across a group of compounds:

A selection of reference data follows.
* Sc1nncn1C1CCCCC1 | 162 to 165 °C
* CC[Si](C#CC1(COCc2ccccc2)OC(n2ccc(=O)[nH]c2=O)C(O)C1OCc1ccccc1)(CC)CC (stereo not given) | 119 to 120 °C
* CCc1cc(C(=O)c2ccccc2Cl)c(-n2c(C)nnc2CNC(=O)Nc2cccc(C(=O)O)c2)s1 | 178 to 180 °C
* COc1ncncc1C1c2ccccc2OCOc2cc(F)ccc21 (stereo not given) | 144 to 148 °C
* C=C1SC(=O)N(c2ccc3cc(-c4ccc(OC)c(C(C)(C)C)c4)ccc3c2)C1=O | 274 to 276 °C

Q. Any idea what melting point was measured for CCCc1nc(Cl)c(C(=O)O)n1Cc1ccc(C2(C(=O)O)CC=CC2)s1 ?
A. 170 to 172 °C

Q. Any idea what melting point was measured for N#Cc1nn(-c2c(Cl)cc(C(F)(F)F)cc2Cl)c(I)c1SC(F)(F)F ?
A. 187 to 188 °C

Q. Any idea what melting point was measured for COc1ccc(-n2cnc3ccc(-c4nnc(SCc5cccc(C#N)c5)o4)cc32)cc1 ?
A. 157 to 158 °C
